- tested.system: T1, BsoBI D246E (UniProt P70985 P70985:1-323, D246E)
- T1 sequence: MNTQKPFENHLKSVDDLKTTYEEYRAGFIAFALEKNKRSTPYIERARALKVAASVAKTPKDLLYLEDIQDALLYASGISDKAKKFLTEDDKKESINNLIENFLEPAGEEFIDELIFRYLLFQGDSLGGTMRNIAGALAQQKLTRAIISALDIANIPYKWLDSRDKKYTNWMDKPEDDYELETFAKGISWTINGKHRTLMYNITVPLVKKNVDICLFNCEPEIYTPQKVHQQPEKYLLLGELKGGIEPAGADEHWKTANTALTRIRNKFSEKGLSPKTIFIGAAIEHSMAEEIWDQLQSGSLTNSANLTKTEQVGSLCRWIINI
- method.notes: filter; 4 mM CaCl2; ±20000
- condition: chain copies: 2 inferred; label: 33P 5' end
pKd: −log10 of the molar value.
outcome.measure: pKd

1. S1 (CTCGAG) (dsDNA) DNA 1: GAGTGTTATGGGTAGCTCGAGTGAAGTGGGAATATC DNA 2: GATATTCCCACTTCACTCGAGCTACCCATAACACTC : 7.10

Origin of measurements: patent US20050003420
